All figures here come from paper PMC6001238.

# System: human cervix carcinoma (HeLa) cells
# Protocol Summary: Cytostatic activity, HeLa cell proliferation
# Assay type: cell-based
# Condition Set: mean ± SD of three experiments; highest concentration tested 250 µM; 4 days; read-out: Toxicity (IC50) HeLa
Endpoint Name: IC50 (µM)
Just the number in µM, nothing appended.

Some solved cases for reference:
INSERT INTO measurements (compound, unit_string, endpoint_value) VALUES
  ('CNC(CC(C)C)C(=O)NC1C(=O)NC(CC(N)=O)C(=O)NC2C(=O)NC3C(=O)NC(C(=O)NC(C(=O)NCCCNC(=O)c4cc5ccccc5[nH]4)c4cc(O)cc(O)c4-c4cc3ccc4O)C(O)c3ccc(c(Cl)c3)Oc3cc2cc(c3OC2OC(CO)C(O)C(O)C2OC2CC(C)(N)C(O)C(C)O2)Oc2ccc(cc2Cl)C1O (stereo not drawn) [Vanc-24]', 'µM', 83),
  ('CNC(CC(C)C)C(=O)NC1C(=O)NC(CC(N)=O)C(=O)NC2C(=O)NC3C(=O)NC(C(=O)NC(C(=O)NCCCNC(=O)c4cc5ccccc5o4)c4cc(O)cc(O)c4-c4cc3ccc4O)C(O)c3ccc(c(Cl)c3)Oc3cc2cc(c3OC2OC(CO)C(O)C(O)C2OC2CC(C)(N)C(O)C(C)O2)Oc2ccc(cc2Cl)C1O (stereo not drawn) [Vanc-25]', 'µM', 98);

Moving on to another compound below.
Which IC50 value is on record for CCCC#Cc1ccc(NC(=O)CNC(=O)C2NC(=O)C3NC(=O)C(NC(=O)C4NC(=O)C(CC(N)=O)NC(=O)C(NC(=O)C(CC(C)C)NC)C(O)c5ccc(c(Cl)c5)Oc5cc4cc(c5OC4OC(CO)C(O)C(O)C4OC4CC(C)(N)C(O)C(C)O4)Oc4ccc(cc4Cl)C3O)c3ccc(O)c(c3)-c3c(O)cc(O)cc32)cc1 (stereo not drawn) [Vanc-68] ? 55
